# credit: patent US20240279318A1

Molecular target: T1, AFP158/HLA-A*02:01 complex (human)
T1 construct: flowed as analyte in SPR
Assay: SPR, fold vs AS170036 VL1VH1
Each item that follows carries a reported Affinity increase.
// return numeric value only (unit: fold, not printed)

Use these answered entries as a reference point.
input: Item AS170036 VL1VH1-VHS57M (scFv) scFv: QSALTQPRSVSGSPGQSVTISCAGTSSDVGSENYVSWYQQHPGKAPKLMIYQVNKRASGVPDRFSGSKSGNTASLTISGLQAEDEADYYCASYRSSDHNIVFGGGTKLTVLGGGGSGGGGSGGGGSEVQLVESGGGLVQPGGSLRLSCAASGFTFSSYAMSWVRQAPGKGLEWVSTINSGTGMPYYADSVKGRFTISRDNSKNTLYLQMNSLRAEDTAVYYCAKNFFDGSWFLGPPAMDYWGQGTLVTVSSHHHHHH has what recorded Affinity increase?
output: 2.7

input: Given the binder AS170036 VL1VH1-VHG56Y (scFv) scFv: QSALTQPRSVSGSPGQSVTISCAGTSSDVGSENYVSWYQQHPGKAPKLMIYQVNKRASGVPDRFSGSKSGNTASLTISGLQAEDEADYYCASYRSSDHNIVFGGGTKLTVLGGGGSGGGGSGGGGSEVQLVESGGGLVQPGGSLRLSCAASGFTFSSYAMSWVRQAPGKGLEWVSTINSGTYSPYYADSVKGRFTISRDNSKNTLYLQMNSLRAEDTAVYYCAKNFFDGSWFLGPPAMDYWGQGTLVTVSSHHHHHH , what is its reported Affinity increase?
output: 6.6

Next up:
input: Recorded Affinity increase for AS170036 VL1VH1-VLH98V (scFv) scFv: QSALTQPRSVSGSPGQSVTISCAGTSSDVGSENYVSWYQQHPGKAPKLMIYQVNKRASGVPDRFSGSKSGNTASLTISGLQAEDEADYYCASYRSSDVNIVFGGGTKLTVLGGGGSGGGGSGGGGSEVQLVESGGGLVQPGGSLRLSCAASGFTFSSYAMSWVRQAPGKGLEWVSTINSGTGSPYYADSVKGRFTISRDNSKNTLYLQMNSLRAEDTAVYYCAKNFFDGSWFLGPPAMDYWGQGTLVTVSSHHHHHH , please?
output: 3.2
